Taken from patent US20230159510A1.

Listing of entries alongside the reported IC50.
Test system: HCT116 WT cells
Assay summary: HCT116 proliferation assay, WT cells (CellTiter-Glo, 6 days)
Type: cell-based
Cond: Homo sapiens, HCT-116, 144 h, read-out: Prolif_HCT116-WT IC50
Reply numerically in µM, unit not repeated.

Cc1cc2cc(C(=O)N(Cc3ccc(C(F)(F)F)cn3)[C@H](C)c3ncc(F)cn3)cnc2nc1N (single isomer, unassigned) = 4.45

// below: IC50 requested for another compound
## Input Tell me the measured IC50 of Cc1cc2cc(C(=O)N(Cc3ccc(C(F)F)cn3)[C@H](C)c3ncc(F)cn3)ccc2nc1N (single isomer, unassigned) , please.
## Output 2.94
